Test: Brine shrimp lethality bioassay
Format: in vivo, Artemia salina
Conditions: Artemia salina (brine shrimp) nauplii, in vivo, other: exposure in sea water containing the compound, 24 h incubation, regression analysis, read-out: LC50 (median lethal concentration)
The following compounds are listed with their measured LC50 at 24 h values.
propertyName: LC50 at 24 h (µg/mL)

>>> df
                               recordsmiles  propertyname  measurement
0         CCCOc1ccc(/C=N/NC(=O)c2ccncc2)cc1  LC50 at 24 h          162
1  COc1cc(/C=N/NC(=O)c2ccncc2)ccc1OCC=C(C)C  LC50 at 24 h          240
